Listed here: items and their measured Activity.
Biological target: NAD-dependent protein deacetylase sirtuin-2 (Homo sapiens) (UniProt Q8IXJ6)
Sequence (Q8IXJ6 whole entry): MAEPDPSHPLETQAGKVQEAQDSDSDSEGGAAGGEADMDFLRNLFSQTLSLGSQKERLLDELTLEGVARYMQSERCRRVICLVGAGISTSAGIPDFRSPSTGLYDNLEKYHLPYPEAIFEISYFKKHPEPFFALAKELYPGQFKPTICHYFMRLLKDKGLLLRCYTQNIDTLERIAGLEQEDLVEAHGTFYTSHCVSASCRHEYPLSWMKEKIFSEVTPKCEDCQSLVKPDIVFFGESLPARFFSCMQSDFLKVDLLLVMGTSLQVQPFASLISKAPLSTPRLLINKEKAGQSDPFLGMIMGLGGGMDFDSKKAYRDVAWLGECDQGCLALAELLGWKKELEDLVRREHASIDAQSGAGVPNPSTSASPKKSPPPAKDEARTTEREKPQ
Test: Inhibition of recombinant SIRT2 assessed as lysine deacetylation at 25 uM relative to control
Design: scale not given: the % may be the effect or the level left
Your answer should be a plain number; it is taken to be in %.

C=CCN(c1ccc(Br)cc1)S(=O)(=O)c1cccc(C(=O)Nc2ccc(Br)cc2)c1
92
O=C(Nc1ccc(Br)cc1)c1cccc(S(=O)(=O)N(Cc2ccccc2)c2ccc(Br)cc2)c1
80
CCN(c1ccc(Br)cc1)S(=O)(=O)c1cccc(C(=O)Nc2ccc(Br)cc2)c1
82
O=C(Nc1ccc(Br)cc1)c1cccc(S(=O)(=O)Nc2ccc(Br)cc2)c1
85

# ---- query compound ----
*Q* Which measured Activity value corresponds to "CN(c1ccc(Br)cc1)S(=O)(=O)c1cccc(C(=O)Nc2ccc(Br)cc2)c1" ?
*A* 56
